# IC50 values compiled below
measurement-target: EGFR del19 T790M C797S protein in Ba/F3 cells (Homo sapiens, UniProt P00533, C797S/DEL746-750/T790M)
Sequence (P00533 with tags, fused parts or gaps C797S/DEL746-750/T790M limits assumed): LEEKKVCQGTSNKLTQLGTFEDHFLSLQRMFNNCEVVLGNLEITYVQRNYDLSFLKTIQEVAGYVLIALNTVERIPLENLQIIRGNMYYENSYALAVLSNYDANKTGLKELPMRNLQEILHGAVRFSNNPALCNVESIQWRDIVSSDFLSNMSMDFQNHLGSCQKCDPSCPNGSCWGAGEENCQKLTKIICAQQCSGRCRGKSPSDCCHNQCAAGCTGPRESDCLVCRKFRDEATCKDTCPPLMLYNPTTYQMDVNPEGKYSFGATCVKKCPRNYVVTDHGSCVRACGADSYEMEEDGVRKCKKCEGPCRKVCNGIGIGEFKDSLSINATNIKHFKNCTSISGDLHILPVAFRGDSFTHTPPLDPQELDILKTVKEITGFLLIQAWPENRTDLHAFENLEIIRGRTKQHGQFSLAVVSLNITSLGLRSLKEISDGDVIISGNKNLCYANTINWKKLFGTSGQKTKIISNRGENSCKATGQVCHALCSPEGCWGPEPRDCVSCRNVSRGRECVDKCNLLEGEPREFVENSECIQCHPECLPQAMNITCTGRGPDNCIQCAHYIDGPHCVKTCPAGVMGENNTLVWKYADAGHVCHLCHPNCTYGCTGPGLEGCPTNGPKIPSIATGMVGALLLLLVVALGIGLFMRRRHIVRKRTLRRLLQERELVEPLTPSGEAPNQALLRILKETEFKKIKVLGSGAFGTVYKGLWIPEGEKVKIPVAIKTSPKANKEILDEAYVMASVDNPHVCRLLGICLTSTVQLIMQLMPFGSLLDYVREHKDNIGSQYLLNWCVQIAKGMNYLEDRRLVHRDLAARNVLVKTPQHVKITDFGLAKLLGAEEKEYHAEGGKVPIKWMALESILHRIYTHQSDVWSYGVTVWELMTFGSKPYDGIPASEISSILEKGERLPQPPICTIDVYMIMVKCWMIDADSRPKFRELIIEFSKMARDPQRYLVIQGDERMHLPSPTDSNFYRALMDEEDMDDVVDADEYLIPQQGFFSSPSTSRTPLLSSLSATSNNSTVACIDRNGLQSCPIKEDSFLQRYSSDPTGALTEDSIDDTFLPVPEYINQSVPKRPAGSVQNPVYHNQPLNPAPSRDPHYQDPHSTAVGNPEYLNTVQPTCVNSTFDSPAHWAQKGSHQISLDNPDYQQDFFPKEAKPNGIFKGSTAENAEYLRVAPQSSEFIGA
assay-details: pEGFR assay (AlphaScreen Surefire, EGFR Tyr1068 phosphorylation)
endpoint-name: IC50 (nM)

* CCc1ccc2c(c1)[nH]/c(=N\C(=O)c1ccnc(-c3cnn(C)c3)c1)n2CC(C)(C)O [I-061] | 7
* CC(C)Cn1/c(=N/C(=O)c2ccnc(-c3cnn(C)c3)c2)[nH]c2ccccc21 [I-012] | 25
* COc1ccc(F)cc1-c1cc(C(=O)/N=c2\[nH]c3ccccc3n2[C@H]2CC[C@@H](O)CC2)ccn1 [I-157] | 5
* COc1ccccc1-c1cc(C(=O)/N=c2\[nH]c3cc(CN4CC[C@@H](OC)C4)ccc3n2[C@H]2CC[C@@H](O)CC2)ccn1 [I-159] | 6
* CC(C)(O)Cn1/c(=N/C(=O)c2ccnc(-n3cnc4ccccc43)c2)[nH]c2ccccc21 [I-039] | 9
* Cn1cc(-c2cc(C(=O)/N=c3\[nH]c4ccccc4n3[C@H]3CC[C@@H](O)CC3)ccn2)cn1 [I-048] | 1
* COc1ccccc1-c1cc(C(=O)/N=c2\[nH]c3cc(C4CCNCC4)ccc3n2[C@H]2CC[C@@H](O)CC2)ccn1 [I-120] | 3
* Cn1cc(-c2cc(C(=O)/N=c3\[nH]c4ccccc4n3[C@H]3CCC[C@H](O)C3)ccn2)cn1 [I-116] | 1
* Cn1cc(-c2cc(C(=O)/N=c3\[nH]c4ccccc4n3C3CCCS(=O)(=O)C3)ccn2)cn1 (centres unmarked) [I-212] | 22
* Cn1cc(-c2cc(C(=O)/N=c3\[nH]c4ccccc4n3CC(C)(C)CO)ccn2)cn1 [I-038] | 27
* C#Cc1cc(C(=O)/N=c2\[nH]c3ccccc3n2[C@H]2CC[C@@H](O)CC2)cc(-c2cnn(C)c2)n1 [I-171] | 8
* CC(C)c1ccc2c(c1)[nH]/c(=N\C(=O)c1ccnc(-c3cnn(C)c3)c1)n2CC(C)(C)O [I-062] | 9
* CNc1cc(C(=O)/N=c2\[nH]c3ccccc3n2[C@H]2CC[C@@H](O)CC2)cc(-c2cnn(C)c2)n1 [I-215] | 14
* CC(C)(O)Cn1/c(=N/C(=O)c2ccnc(-c3cccnc3)c2)[nH]c2cc(CCO)ccc21 [I-056] | 5
* Cc1cc(C(=O)/N=c2\[nH]c3ccc(CN4CCN(C)CC4)cc3n2C2CCCCC2)cc(-c2cnn(C)c2)n1 [I-224] | 3
* CN1CCC(c2ccc3c(c2)[nH]/c(=N\C(=O)c2ccnc(-c4cnn(C)c4)c2)n3C2CCCC2)CC1 [I-010] | 20
* COc1ccncc1-c1cc(C(=O)/N=c2\[nH]c3ccccc3n2CC(C)(C)O)ccn1 [I-018] | 1
* O=C(/N=c1\[nH]c2ccccc2n1[C@H]1CC[C@@H](O)CC1)c1ccnc(-c2cccc3ccnn23)c1 [I-89] | 8
* CN1CCC(c2ccc3c(c2)[nH]/c(=N\C(=O)c2ccnc(-c4cnn5cccnc45)c2)n3CC(C)(C)O)CC1 [I-032] | 1
* Cn1cc(-c2cc(C(=O)/N=c3\[nH]c4cc(CC#N)ccc4n3CC(C)(C)O)ccn2)cn1 [I-199] | 15
* CC(C)(O)Cn1/c(=N/C(=O)c2ccnc(-c3cccnc3)c2)[nH]c2cc(CC(=O)N3CCCCC3)ccc21 [I-130] | 5
* COc1ccccc1-c1cc(C(=O)/N=c2\[nH]c3ccccc3n2[C@@H]2CC[C@H](O)[C@@H](O)C2)ccn1 [I-198] | 18
* Cn1cc(-c2cc(C(=O)/N=c3\[nH]c4ccccc4n3[C@H]3COCC[C@@H]3O)ccn2)cn1 [I-190] | 33
